Molecular target: Pin1 (Homo sapiens)
Construct: endogenous in cells; host or cells: 293T cells
Sequence (Q13526 whole entry): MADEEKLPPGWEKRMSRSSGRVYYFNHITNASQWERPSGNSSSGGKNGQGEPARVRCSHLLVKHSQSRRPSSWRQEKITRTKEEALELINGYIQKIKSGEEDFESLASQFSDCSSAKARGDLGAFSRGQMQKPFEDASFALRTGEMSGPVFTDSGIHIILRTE
Experiment: Cell-based Pin1 inhibition assay with AMPK phosphorylation level as index
Parameters: key: +++: a higher level of AMPK phosphorylation is promoted, as compared with C1; ++: a similar level of AMPK phosphorylation is promoted, as compared with C1; +: a lower level of AMPK phosphorylation is promoted, as compared with C1; −: no or almost no promotion is found in AMPK phosphorylation
Settings: 293T cells, compound at 100 μM, 10 mM 2-DG, pAMPK blot compared with C1
Procedure: To evaluate the inhibitory activity of each synthesized compound against the function of Pin1, a cell-based assay was performed according to the method previously developed by the inventors (Yusuke Nakatsu et al., Journal of Biological Chemistry, 2015, Vol. 290, No. 40, pp. 24255-24266), in which the phosphorylation level of AMPK (AMP-activated protein kinase), a protein whose phosphorylation is inhibited by Pin1, was examined as an index. […]
Test readout: Pin1 inhibition activity

- O=C(O[C@H](Cc1ccc2ccccc2c1)C(=O)O)C1c2ccccc2-c2ccccc21: +++
- COC(=O)[C@@H](Cc1ccc2ccccc2c1)NC(=O)CN1c2ccccc2C2C=CC=CC21 (some centres unmarked): +
- O=C(N[C@H](Cc1ccc2ccccc2c1)C(=O)O)C1c2ccccc2-c2ccccc21: +++
- O=C(O[C@H](Cc1ccc2ccccc2c1)C(=O)O)c1ccc(-c2ccccc2)cc1: +
- O=C(O[C@H](Cc1ccc2ccccc2c1)C(=O)O)c1ccc(F)c(F)c1: +
- O=C(CC1c2ccccc2-c2ccccc21)N[C@H](Cc1ccc2ccccc2c1)C(=O)O: +++
- O=C(Cc1ccc2ccccc2c1)O[C@H](Cc1ccc2ccccc2c1)C(=O)O: +
- O=C(O)[C@@H](Cc1ccc2ccccc2c1)OC(=O)n1c2ccccc2c2ccccc21: +++
- O=C(O[C@@H](Cc1ccc2ccccc2c1)C(=O)O)C1c2ccccc2-c2ccccc21: +++
- O=C(O)[C@@H](Cc1ccc2ccccc2c1)NC(=O)N(c1ccccc1)c1ccccc1: ++
- O=C(O[C@H](Cc1ccc2ccccc2c1)C(=O)O)c1ccc(C(O)c2ccccc2)cc1 (some centres unmarked): ++
- O=C(Cn1c2ccccc2c2ccccc21)N[C@H](Cc1ccc2ccccc2c1)C(=O)O: +
- O=C(O[C@H](Cc1ccc2ccccc2c1)C(=O)O)c1ccccc1Oc1ccccc1: +
- COc1ccc(C(=O)O[C@H](Cc2ccc3ccccc3c2)C(=O)O)cc1OC: +
- O=C(Nc1ccc(C(=O)c2ccccc2)cc1)N[C@H](Cc1ccc2ccccc2c1)C(=O)O: ++
- O=C(COc1ccccc1)O[C@H](Cc1ccc2ccccc2c1)C(=O)O: ++
- O=C(COc1ccc2ccccc2c1)O[C@H](Cc1ccc2ccccc2c1)C(=O)O: ++
- CN(C)c1ccc(C(=O)O[C@H](Cc2ccc3ccccc3c2)C(=O)O)cc1: +
- O=C(CC1c2ccccc2-c2ccccc21)O[C@H](Cc1ccc2ccccc2c1)C(=O)O: ++
- COC(=O)c1ccc2cc(C(=O)N[C@H](Cc3ccc4ccccc4c3)C(=O)O)ccc2c1: +
- O=C(O)[C@@H](Cc1ccc2ccccc2c1)NC(=O)N1c2ccccc2Oc2ccccc21: ++
- Cc1ccc(C(=O)O[C@H](Cc2ccc3ccccc3c2)C(=O)O)cc1C: +
- O=C(O[C@H](Cc1ccc2ccccc2c1)C(=O)O)c1ccc(Cl)c(Cl)c1: +
- O=C(O[C@H](Cc1ccc2ccccc2c1)C(=O)O)c1cc(Cl)cc(Cl)c1: +
- O=C(Cc1ccc2ccccc2c1)N[C@H](Cc1ccc2ccccc2c1)C(=O)O: ++
- O=C(O[C@H](Cc1ccc2ccccc2c1)C(=O)O)c1ccc2ccccc2c1: ++
- O=C(O)[C@@H](Cc1ccc2ccccc2c1)NC(=O)n1c2ccccc2c2ccccc21: ++
- Cc1cc(C)cc(C(=O)O[C@H](Cc2ccc3ccccc3c2)C(=O)O)c1: +
- O=C(O[C@H](Cc1ccc2ccccc2c1)C(=O)O)C(c1ccccc1)c1ccccc1: ++
- CC(C)(C)OC(=O)N[C@@H](Cc1ccccc1)C(=O)O[C@H](Cc1ccc2ccccc2c1)C(=O)O: +

All figures here come from patent US11071738B2.
